Biological target: GRK5 (Homo sapiens, UniProt P34947)
Sequence (P34947 whole entry): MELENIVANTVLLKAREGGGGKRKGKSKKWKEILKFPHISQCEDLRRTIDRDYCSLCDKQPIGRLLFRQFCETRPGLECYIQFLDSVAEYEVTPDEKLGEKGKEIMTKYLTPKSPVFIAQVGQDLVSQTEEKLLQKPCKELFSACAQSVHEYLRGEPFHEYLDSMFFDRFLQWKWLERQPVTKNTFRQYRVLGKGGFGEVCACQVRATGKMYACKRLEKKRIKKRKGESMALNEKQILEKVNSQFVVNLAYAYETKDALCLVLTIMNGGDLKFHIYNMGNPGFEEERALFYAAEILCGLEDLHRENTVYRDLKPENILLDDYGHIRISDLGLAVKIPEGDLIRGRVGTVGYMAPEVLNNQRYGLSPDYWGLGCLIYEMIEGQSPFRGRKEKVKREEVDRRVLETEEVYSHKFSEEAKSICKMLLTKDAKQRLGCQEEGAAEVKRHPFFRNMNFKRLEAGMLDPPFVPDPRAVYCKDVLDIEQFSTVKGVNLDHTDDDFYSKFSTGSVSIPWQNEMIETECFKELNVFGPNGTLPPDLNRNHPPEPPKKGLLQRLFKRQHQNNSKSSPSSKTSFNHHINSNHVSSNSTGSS
Assay: radiometric GRK5 inhibition assay (tubulin phosphorylation)
Conditions: read-out: GRK5 IC50; Table 1, μM ± SD
Measured attribute: IC50 (µM)

# Molecule smiles, Measured attribute, Quantity unit, Measured number
rows = [
    ("CC#CC(=O)Nc1c(C)[nH]c(/C=C2\\C(=O)Nc3ccc(C(=O)N[C@H](C)c4ccccc4)cc32)c1C", "IC50", "µM", 2.5),
]
